Assign EC50 (nM), ADCC on THP-1 cells to each entry below.
# targetOrTestSystem: human LILRB4 (human, UniProt Q8NHJ6 22-448)
# methodSummary: cell-based or functional assay
# number only, unit nM dropped from output

*Q* Given ch2-H1-D7-E5-D5 (antibody, V domains shown) VH: EVHLVESGGGLVQPGGSRKLSCAASGFTFSSFGMHWVRQPPEKGLEWVAYISSGSSSIYYADTVKGRFTISRDNPKNTLFLQMTSLRSEDTAMYYCARGTGTGAMDYWGQGTSVTVSS VL: DIQMTQTTSSLSASLGDRVTISCRTSQDISNYLNWYQQKPDGTVKLLIYYTSKLHSGVPSRFSGSGSGTDYSLTISNLDQEDIATYFCQQGNTLPWTFGGGTKLEIK , state its recorded EC50 (nM), ADCC on THP-1 cells.
*A* 7.34

*Q* Given ch43-D12-F3-G11 (antibody, V domains shown) VH: EVQVVESGPGLVAPSQSLSITCTVSGFSLTSYGVSWVRQPPGKGLEWLGVIWADGSTNYHSALLSRLSISKDNSKSQVFLKLNSLQTDDTATYYCAKGHWDGFAYWGQGTLVAVSA VL: DIVLTQSPAIMSTSPGEKVTLTCSASSSITSSYLYWYQQKPGSSPKLWIYSTSNLASGVPARFSGSGSGTSYYLTISSMEAEDAASYFCHQWSSYPPTFGGGTKLELK , state its recorded EC50 (nM), ADCC on THP-1 cells.
*A* 4.14

*Q* Given ch2-H8-C9-F7-E2 (antibody, V domains shown) VH: EVQLQQSGAELVKPGASVKLSCKASGYTFTNYWMHWVKQRPGQGLEWIGEINPSNGRTNYNEKFKSKATLTVDKSSSTAYMQLSSLTSEDSAVYYCARGSLTTVVPFDYWGQGTTLTVSS VL: DIQMTQTPSSLSASLGGKVTITCKASQDINNYIAWYQHKPGKGPRLLIHYTSTLQPGIPSRFSGSGSGRDYSFSISNLEPEDIATYFCLQYDILLTFGGGTKLEK , state its recorded EC50 (nM), ADCC on THP-1 cells.
*A* 1.38

*Q* Given ch44-F10-B6-D4 (antibody, V domains shown) VH: EVHLVESGGGLVKPGGSLKLSCAASGFTFSSYAMSWVRQTPEKRLEWVATISSGGSYIYYPDSVKGRFTISRDNAKNTLYLQMSSLRSEDTAMYYCARQDWDGGDYYAMDYWGQGTSVTVSS VL: DIVMTQSPSSLAVSAGEKVTMSCKSSQSVLYSSNQKNFLAWYQQKPGQSPKLLIYWASTRESGVPDRFTGSGSGTDFTLTISSVQAEDLAVYYCHQYLSSLTFGAGTKLELK , state its recorded EC50 (nM), ADCC on THP-1 cells.
*A* 1.43
